target: Human immunodeficiency virus type 1 reverse transcriptase (Human immunodeficiency virus 1) (UniProt Q72547); assay: Inhibition of HIV1 reverse transcriptase assessed as reduction in [3H]dTTP incorporation by measuring proportional residual activity ratio at 20 uM using poly(rA)/oligo(dT) as template/primer after 30 mins by scintillation counting method relative to control
Where a SMILES comes first, the peptide text is derived from it. Bridges are numbered along the chain shown (N, C = ends). [ ]: non-standard residue; d: D form. The star is where a group is joined. ξ: configuration not given here. Quinoxaline2carbonyl = O=C(c1cnc2ccccc2n1)*; ξDap = NCC(N)C(=O)O
List of Ratio values.
Give your answer as a number; write no unit.

| molecule | Ratio |
| --- | --- |
| NCC1NC(=O)C[C@@H](C(N)=O)NC(=O)CNC(=O)C(CNC(=O)c2cnc3ccccc3n2)NC(=O)CNC(=O)C(CNC(=O)c2cnc3ccccc3n2)NC(=O)C(CNC(=O)c2cnc3ccccc3n2)NC1=O (stereo partly drawn) ([ξDap][ξDap](Quinoxaline2carbonyl)[ξDap](Quinoxaline2carbonyl)G[ξDap](Quinoxaline2carbonyl)GD-NH2; lactam N-7) | 0.03 |
| NCC1NC(=O)C[C@@H](C(N)=O)NC(=O)C(CNC(=O)c2cnc3ccccc3n2)NC(=O)CNC(=O)C(CNC(=O)c2cnc3ccccc3n2)NC(=O)CNC(=O)C(CNC(=O)c2cnc3ccccc3n2)NC1=O (stereo partly drawn) ([ξDap][ξDap](Quinoxaline2carbonyl)G[ξDap](Quinoxaline2carbonyl)G[ξDap](Quinoxaline2carbonyl)D-NH2; lactam N-7) | 0.18 |

Attention now shifts to the item below.
Prompt: Please indicate Ratio recorded for NCC1NC(=O)C[C@@H](C(N)=O)NC(=O)C(CNC(=O)c2cnc3ccccc3n2)NC(=O)CNC(=O)C(CNC(=O)c2cnc3ccccc3n2)NC(=O)C(CNC(=O)c2cnc3ccccc3n2)NC(=O)CNC1=O (stereo partly drawn) ([ξDap]G[ξDap](Quinoxaline2carbonyl)[ξDap](Quinoxaline2carbonyl)G[ξDap](Quinoxaline2carbonyl)D-NH2; lactam N-7)
Response: 0.14

###

Catalogue of IC50 values
target: Human immunodeficiency virus type 1 reverse transcriptase (Human immunodeficiency virus 1, UniProt Q72547); experiment: Inhibition of HIV1 reverse transcriptase assessed as reduction in [3H]dTTP incorporation using poly(rA)/oligo(dT) as template/primer after 30 mins in presence of Triton-X-100 by scintillation counting method
Where a SMILES comes first, the peptide text is derived from it. Bridges are numbered along the chain shown (N, C = ends). [ ]: non-standard residue; d: D form. The star is where a group is joined. ξ: configuration not given here. Quinoxaline2carbonyl = O=C(c1cnc2ccccc2n1)*; ξDap = NCC(N)C(=O)O
Write it as a number; the unit mM goes unstated.

Prompt: Please report IC50 for the following molecule: NCC1NC(=O)C[C@@H](C(N)=O)NC(=O)C(CNC(=O)c2cnc3ccccc3n2)NC(=O)CNC(=O)CNC(=O)CNC(=O)C(CNC(=O)c2cnc3ccccc3n2)NC1=O (stereo partly drawn) ([ξDap][ξDap](Quinoxaline2carbonyl)GGG[ξDap](Quinoxaline2carbonyl)D-NH2; lactam N-7)
Response: 0.007

Prompt: Tell me measured IC50 for NC(=O)[C@@H](N)Cc1c[nH]c2ccccc12 please.
Response: 15.7

###

molecular target: Human immunodeficiency virus type 1 reverse transcriptase (Human immunodeficiency virus 1) (UniProt Q72547); assay: Inhibition of HIV1 reverse transcriptase assessed as reduction in [3H]dTTP incorporation by measuring proportional residual activity ratio at 20 uM using poly(rA)/oligo(dT) as template/primer after 30 mins by scintillation counting method relative to control
Where a SMILES comes first, the peptide text is derived from it. Bridges are numbered along the chain shown (N, C = ends). [ ]: non-standard residue; d: D form. The star is where a group is joined. ξ: configuration not given here. Quinoxaline2carbonyl = O=C(c1cnc2ccccc2n1)*; ξDap = NCC(N)C(=O)O
endpoint: Ratio
Note: the reply should be a number with no unit written.

Some entries whose results are on file:
| compound | endpoint | experimental-result |
| --- | --- | --- |
| NCC1NC(=O)C[C@@H](C(N)=O)NC(=O)C(CNC(=O)c2cnc3ccccc3n2)NC(=O)C(CNC(=O)c2cnc3ccccc3n2)NC(=O)CNC(=O)CNC(=O)C(CNC(=O)c2cnc3ccccc3n2)NC1=O (stereo partly drawn) ([ξDap][ξDap](Quinoxaline2carbonyl)GG[ξDap](Quinoxaline2carbonyl)[ξDap](Quinoxaline2carbonyl)D-NH2; lactam N-7) | Ratio | 0.13 |
| NCC1NC(=O)C[C@@H](C(N)=O)NC(=O)CNC(=O)C(CNC(=O)c2cnc3ccccc3n2)NC(=O)CNC(=O)CNC(=O)C(CNC(=O)c2cnc3ccccc3n2)NC1=O (some centres not stated) ([ξDap][ξDap](Quinoxaline2carbonyl)GG[ξDap](Quinoxaline2carbonyl)GD-NH2; lactam N-7) | Ratio | 0.02 |

Next:
Prompt: // fetch Ratio given entry NCC1NC(=O)C[C@@H](C(N)=O)NC(=O)CNC(=O)C(CNC(=O)c2cnc3ccccc3n2)NC(=O)C(CNC(=O)c2cnc3ccccc3n2)NC(=O)CNC(=O)CNC1=O (some centres not stated) ([ξDap]GG[ξDap](Quinoxaline2carbonyl)[ξDap](Quinoxaline2carbonyl)GD-NH2; lactam N-7)
Response: 0.57
